# Measurement notes: chemical genetic growth profiling, strain panel (AID 1159580);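 further: tested at 20 µM; growth read once vehicle control cultures reached saturation at 30 °C; 1 = growth at the plate median or of vehicle wells; lower values mean less growth of the strain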
# Condition context: S. cerevisiae deletion strains, growth OD, locus YER155C, strain BEM2 (second series), hits give low values
About 2,000 (36%) of roughly 5,500 compounds were called active. Inconclusive results (about 18%) are left out. This is one part of the list.
Experimental endpoint: normalized growth
Kindly provide the number alone.

| Molecule | normalized growth |
| --- | --- |
| NC(=O)NC1NC(=O)NC1=O (configuration not stated) | 1.01 |
| NC(=O)CS(=O)C(c1ccccc1)c1ccccc1 (configuration not stated) | 1.02 |
| C=C[C@@]1(C)CC(=O)[C@@]2(O)[C@](C)(O1)[C@@H](OC(C)=O)[C@@H](O)C1C(C)(C)CC[C@H](O)[C@@]12C (some centres not stated) | 0.999 |
| NCCCCC(=O)O | 1.04 |
| Clc1ccc(C(c2ccccc2Cl)C(Cl)Cl)cc1 (configuration not stated) | 0.96 |
| COC(=O)[C@@H]1OC(=O)C2OC23[C@@]1(C)CCC1[C@]2(C)C(C[C@@H](O)[C@]13C)C(C)(C)[C@H](OC(C)=O)C[C@@H]2OC(C)=O (some centres not stated) | 1.01 |

Would you kindly look at the next entry?
Asked: Form field: reported normalized growth of CCCCC(=O)O[C@]1(C(=O)CO)CCC2C3CCC4=CC(=O)CC[C@]4(C)C3[C@@H](O)C[C@@]21C (some centres not stated)
Given back: 0.981
